Assay: Plasma and brain levels after the USV assay
Assay type: in vivo, rat
Study Conditions: 1 mg/kg per os, approximately 75 min after treatment, rat plasma
Property Label: plasma exposure at 1 mg/kg

* Cc1nc2cc([C@H]3CC[C@H](C(F)(F)F)CC3)nn2c(N2CCC[C@](C(=O)O)(C(C)C)C2)c1C(C)C [Example 2] | 188 ng/mL
* CC[C@@]1(C(=O)O)CCCN(c2c(C(C)C)c(C)nc3c(F)c([C@H]4CC[C@H](C(F)(F)F)CC4)nn23)C1 (single isomer, unassigned) [Example 18] | 175 ng/mL
* CC[C@]1(C(=O)O)CCCN(c2c(C(C)C)c(C)nc3c(F)c([C@H]4CC[C@H](C(F)(F)F)CC4)nn23)C1 (single isomer, unassigned) [Example 17] | 135 ng/mL
* Cc1nc2cc([C@H]3CC[C@H](C(F)(F)F)CC3)nn2c(N2CCC[C@@](C)(C(=O)O)C2)c1C(C)C [Example 3] | 58 ng/mL
* CCc1nc2cc([C@H]3CC[C@H](C(F)(F)F)CC3)nn2c(N2CCC[C@@](C)(C(=O)O)C2)c1CC [Example 33] | 172 ng/mL
* CC[C@]1(C(=O)O)CCCN(c2c(C(C)C)c(C)nc3cc([C@H]4CC[C@H](C(F)(F)F)CC4)nn23)C1 (single isomer, unassigned) [Example 12] | 121 ng/mL
* Cc1nc2c(F)c([C@H]3CC[C@H](C(F)(F)F)CC3)nn2c(N2CCC[C@](C)(C(=O)O)C2)c1C(C)C (single isomer, unassigned) [Example 15] | 170 ng/mL
* Cc1nc2c(F)c([C@H]3CC[C@H](C(F)(F)F)CC3)nn2c(N2CCC[C@@](C)(C(=O)O)C2)c1C(C)C (single isomer, unassigned) [Example 16] | 131 ng/mL
* C[C@@]1(C(=O)O)CCCN(c2c3c(nc4cc([C@H]5CC[C@H](C(F)(F)F)CC5)nn24)CCCCC3)C1 [Example 35] | 207 ng/mL
* Cc1nc2cc([C@H]3CC[C@H](C(F)(F)F)CC3)nn2c(N2CCC[C@](C)(C(=O)O)C2)c1C(C)C [Example 11] | 146 ng/mL
* CC[C@@]1(C(=O)O)CCCN(c2c(C(C)C)c(C)nc3cc([C@H]4CC[C@H](C(F)(F)F)CC4)nn23)C1 (single isomer, unassigned) [Example 13] | 124 ng/mL
